- Test system: RCH-ACV;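 further: ALL cell lines in 384-well plates, five doses spanning 10,000-fold, each plate scaled between vehicle and 100 µmol/L benzalkonium chloride controls, sDSS an adapted area-under-curve metric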
- measurement_notes: selective drug sensitivity score (sDSS, relative to normal bone marrow) (sDSS (score)); higher = more potent and effective on the cell line relative to normal bone marrow cells
- test_conditions: 72 h
measurement_name: selective drug sensitivity score
Write the value as a bare number.

# count of solved cases: 5
molecule	experimental_value
Cc1cccc(-c2[nH]c(CNc3ccccc3F)nc2-c2ccc3ncnn3c2)n1 [Vactosertib (TEW-7197)] (top concentration 2500 nM)	-0.5
O=C(/C=C/c1cccnc1)NCCCCC1CCN(C(=O)c2ccccc2)CC1 [Daporinad] (top concentration 1000 nM)	19.5
Nc1nc(NC2CC2)cc(-c2cccc(Cl)c2Cl)n1 [TH588] (top concentration 25000 nM)	3.52
CO[C@@H](C)Cn1c(=O)n(C)c2cnc3ccc(-c4cncc(C(C)(C)O)c4)cc3c21 (top concentration 2500 nM)	17.6
NS(=O)(=O)NCCNc1nonc1/C(=N/O)Nc1ccc(F)c(Br)c1 [Epacadostat] (top concentration 10000 nM)	-0.26

Reported selective drug sensitivity score for OC[C@H]1O[C@@H](n2cnc3c2N=CNC[C@H]3O)C[C@@H]1O [Pentostatin] (top concentration 10000 nM) was -0.44

Reported selective drug sensitivity score for CCN(CC)CCCC(C)Nc1c2ccc(Cl)cc2nc2ccc(OC)cc12 (stereo unspecified) [Mepacrine] (top concentration 50000 nM) was -4.5

Reported selective drug sensitivity score for O=C(c1ccc(C(=O)N2CCC(N3CCCC3)CC2)c(Nc2ccccc2)c1)N1CCC(N2CCCC2)CC1 [UNC1215] (top concentration 10000 nM) was 0

Reported selective drug sensitivity score for CN(C)Cc1ccc(S(=O)(=O)n2ccc(/C=C/C(=O)NO)c2)cc1 [Resminostat] (top concentration 10000 nM) was 12.2

Reported selective drug sensitivity score for CC[C@H](C)C(=O)O[C@H]1C[C@@H](C)C=C2C=C[C@H](C)[C@H](CC[C@@H]3C[C@@H](O)CC(=O)O3)[C@H]21 [Lovastatin] (top concentration 10000 nM) was 0.2

Reported selective drug sensitivity score for Cc1ccc(Nc2nccc(N(C)c3ccc4c(C)n(C)nc4c3)n2)cc1S(N)(=O)=O [Pazopanib] (top concentration 10000 nM) was 10.5

Reported selective drug sensitivity score for O=c1[nH]c(=O)n([C@H]2C[C@H](O)[C@@H](CO)O2)cc1F [Floxuridine] (top concentration 10000 nM) was 39.1

Reported selective drug sensitivity score for COc1cccc2c1c(O)c(C(=O)N(C)c1ccc(C(F)(F)F)cc1)c(=O)n2C [Tasquinimod] (top concentration 10000 nM) was -0.42

Reported selective drug sensitivity score for O=C1Cc2cc(C(=O)NC3C[C@H]4CC[C@@H](C3)N4S(=O)(=O)CC3CCN(CCCC(F)(F)F)CC3)c(Cl)cc2N1 (stereo partly specified) (top concentration 10000 nM) was 0

Reported selective drug sensitivity score for CN1CCN(c2cc(C(=O)Nc3ccc4c(c3)-c3c(c(C(N)=O)nn3-c3ccc(F)cc3)CC4)c(Cl)cn2)CC1 [PHA-408] (top concentration 10000 nM) was 5.28

Reported selective drug sensitivity score for O=c1sn(-c2cccc3ccccc23)c(=O)n1Cc1ccccc1 [Tideglusib] (top concentration 3000 nM) was -0.3

Reported selective drug sensitivity score for CC(=O)[C@]1(O)Cc2c(O)c3c(c(O)c2[C@@H](O[C@H]2C[C@H](N)[C@H](O)[C@H](C)O2)C1)C(=O)c1ccccc1C3=O [Idarubicin] (top concentration 1000 nM) was 12.7

Reported selective drug sensitivity score for CC(C)(C)c1cc(NC(=O)Nc2ccc(-c3cn4c(n3)sc3cc(OCCN5CCOCC5)ccc34)cc2)no1 [Quizartinib] (top concentration 1000 nM) was 2.08

Reported selective drug sensitivity score for CC(C)C[C@@H](C(=O)N[C@H](C(=O)OC1CCCC1)c1ccccc1)[C@H](O)C(=O)NO [Tosedostat] (top concentration 10000 nM) was 2.16

Reported selective drug sensitivity score for Nc1nc2[nH]cnc2c(=S)[nH]1 [Thioguanine] (top concentration 10000 nM) was 14.3

Reported selective drug sensitivity score for CNc1nc(Nc2cn(C(C)(C)C#N)nc2C)ncc1C(F)(F)F [GNE-0877] (top concentration 1000 nM) was 0
